observation_type: melting point

response.value for CN(c1ccc(Cl)cc1)S(=O)(=O)c1cc(C(=O)Nc2ccc(C#N)cc2)ccn1 [Compound 203Am] (field: melting point) = 195 to 197 °C

response.value for CSc1ccc(CSc2cccc(C(=O)Nc3ccc(Cl)cn3)c2)cc1 [Compound 211b] (field: melting point) = 159 to 161 °C

response.value for CC(=O)c1ccc(C(C)Oc2cccc(C(=O)Nc3ccc(C#N)cc3)c2)cc1 (centres unmarked) [Compound 216Ac] (field: melting point) = 79 to 81 °C

response.value for CSc1ccc(CSc2cccc(C(=O)Nc3ccc(C#N)cn3)c2)cc1 [Compound 211a] (field: melting point) = 161 to 162 °C

response.value for CN(C(=O)c1cccc(S(=O)(=O)N(C)c2ccc(S(C)(=O)=O)cc2)c1)c1ccc(Cl)cc1F [Compound 203Ah] (field: melting point) = 159 to 160 °C

response.value for COc1ccc(COc2cccc(C(=O)Nc3ccc(C#N)cc3)c2)cc1 [Compound 216c] (field: melting point) = 147 to 148 °C

response.value for CN(c1ccc(S(C)(=O)=O)cc1)S(=O)(=O)c1cccc(C(=O)Nc2ccc(C#N)cc2F)c1 [Compound 203Ai] (field: melting point) = 188 to 189 °C

response.value for COc1ccc(CSc2cccc(C(=O)Nc3ccc(C#N)cn3)c2)cc1 [Compound 211d] (field: melting point) = 163 to 164 °C
